Each recorded value in this set is attributed to ChEMBL document CHEMBL1157539.

- System: Plasmodium falciparum
- Assay remarks: GSK_TCMDC: Inhibition of Plasmodium falciparum 3D7 in whole erythrocytes, using parasite LDH activity as an index of growth.
- Assay type: functional, organism-based
- Study conditions: Plasmodium falciparum, 3D7
Parameter: XC50 (nM)
Kindly provide the numeric value in nM only, without the unit symbol.

Asked: # input molecule: CN(CCCCCN1CCC(NC(=O)Nc2ccc(C(F)(F)F)cc2)C1)C(=O)/C=C/c1ccc(Cl)c(Cl)c1 (stereo not given) ; wanted: its XC50
Given back: 771

Asked: Please do the same for N#Cc1ccc2c(c1)CCN(CCC1CCC(Nc3ncnc4ccccc34)CC1)C2 (stereo not given) as well.
Given back: 635

Asked: Please do the same for O=C(Nc1cccc(C(F)(F)F)c1)N1CCOC(CCN2CCC(c3ccccc3)CC2)(c2ccc(Cl)c(Cl)c2)C1 (stereo not given) as well.
Given back: 1110

Asked: Please do the same for `CC1(C)CCNc2cc(NC(=O)c3ccc(-c4ncccc4C(F)(F)F)cc3)ccc21` as well.
Given back: 903

Asked: Please do the same for `O=c1cc(NCCCNCc2cc3c(Cl)cccc3s2)[nH]c2ccccc12` as well.
Given back: 474

====

- System: Plasmodium falciparum
- Assay remarks: GSK_TCMDC: Inhibition of Plasmodium falciparum 3D7 in whole erythrocytes, using parasite LDH activity as an index of growth.
- Assay type: functional, organism-based
- Study conditions: Plasmodium falciparum, 3D7
Please provide measured log10 of XC50 for the entries that follow.
// do not treat as linear: log10 of XC50, unit nM

Asked: Give Plasmodium falciparum log10 of XC50 for COc1ccc(OC)c(NC(=O)C2c3ccccc3C(=O)N(CC(C)C)C2c2cccs2)c1 (stereo not drawn)
Given back: 2.91

Asked: Please do the same for CCCCCCCN1CCC(NC(=O)Nc2ccnc3ccc(OC)cc23)C(C(=O)OCC)C1 (stereo not drawn) as well.
Given back: 2.63

Asked: Please do the same for `Cc1cccc2nc(-c3cccc(-c4ccc(CNCCc5ccncc5)cc4)c3)[nH]c12` as well.
Given back: 2.08

Asked: Please do the same for `NCc1cccc(-c2cccc(CNC3CCN(Cc4ccccc4)CC3)c2)c1` as well.
Given back: 2.86

Asked: Please do the same for `CC(C)C(=O)n1ncc2c3c(N)nc(N)nc3ccc21` as well.
Given back: 3.01

Asked: Please do the same for `N=C(N)NN=CC(=O)Nc1cc([N+](=O)[O-])cc([N+](=O)[O-])c1` as well.
Given back: 2.80

Asked: Please do the same for `CCCCNC(=O)[C@@H](NC(=O)c1ccc(O)c(-c2ccc(Cl)c(Cl)c2)c1)C(C)C` as well.
Given back: 2.36

Asked: Please do the same for COc1ccc(-c2nc3cc4ccccc4nc3[nH]2)c(OCC(O)CNC(C)C)c1 (stereo not drawn) as well.
Given back: 2.84

Asked: Please do the same for `Cc1cc(N2CCCC2)nc(Nc2ccc(NC(=O)c3cccc(F)c3)cc2)n1` as well.
Given back: 2.26

Asked: Please do the same for `CN(C)CCN(C)Cc1ccc(-c2cccc(NC(=O)c3cccc(C#N)c3)c2)cc1` as well.
Given back: 3.07

Asked: Please do the same for `CCS(=O)(=O)Nc1ccc2c(c1)/C(=C(/Nc1ccc(CN3CCCCC3)cc1)c1ccccc1)C(=O)N2` as well.
Given back: 1.75

Asked: Please do the same for `Cc1ccc2c(N/N=C/c3ccccc3[N+](=O)[O-])cc(C)nc2c1` as well.
Given back: 2.62

Asked: Please do the same for `CN(C)c1nc(NN=Cc2cc(Cl)ccc2O)nc(Nc2ccc(F)cc2)n1` as well.
Given back: 2.92

Asked: Please do the same for `COc1ccccc1-c1cccc(-c2cccc(NC(=O)c3ccc([N+](=O)[O-])o3)c2)n1` as well.
Given back: 2.78

Asked: Please do the same for `CC(=O)Oc1c(C2CCN(CCCCNC(=O)c3ccc(NC(=O)c4ccc(Cl)cc4)cc3)CC2)ccc2ccccc12` as well.
Given back: 2.94

Asked: Please do the same for `CN1Cc2cc(NC(=O)/C=C/c3ccccc3Cl)ccc2C(C)(C)C1` as well.
Given back: 2.81

Asked: Please do the same for `CCNc1cc(C(=O)N[C@@H](Cc2ccccc2)[C@H](O)CNC(C)(C)c2cccc(OC)c2)cc(N2CCCC2=O)c1` as well.
Given back: 2.16

Asked: Please do the same for O=C(Nc1ccccc1)NC1CCN(CCC2(c3ccc(Cl)c(Cl)c3)COCN(C(=O)c3ccccc3)C2)C1 (stereo not drawn) as well.
Given back: 2.94

Asked: Please do the same for `Cc1cc(Nc2nc(NCc3cccnc3)nc3ccccc23)n[nH]1` as well.
Given back: 2.93

Asked: Please do the same for `CNC(=O)c1nc(-c2ccccc2)[nH]c1NC(C)=O` as well.
Given back: 2.18

Asked: Please do the same for `CCCNCc1ccc(-c2ccc(CN(CCOC)C(=O)c3cscn3)cc2)nc1` as well.
Given back: 2.25

Asked: Please do the same for `CN(C)c1cccc(CN2CC=C(c3c[nH]c4ccc(Cl)cc34)CC2)c1` as well.
Given back: 2.82

Asked: Please do the same for `O=C(CCn1c2ccccc2c2ccccc21)NN=Cc1ccco1` as well.
Given back: 2.77

Asked: Please do the same for CC(C)(C)C1CCc2nc(N)nc(N)c2C1 (stereo not drawn) as well.
Given back: 1.10

Asked: Please do the same for `CC(C)NCc1ccc(-c2cccc(-c3nc4ccccc4[nH]3)c2)cc1` as well.
Given back: 2.36

Asked: Please do the same for `Cc1cccc2nc(-c3ccc(-c4ccc(CNCc5cccc(N)c5)cc4)s3)[nH]c12` as well.
Given back: 2.88

Asked: Please do the same for `CC(C)c1nc(N2CCN(C(=S)NCc3ccccc3)CC2)c(C#N)c2c1COC(C)(C)C2` as well.
Given back: 2.15

Asked: Please do the same for `O=C(c1cc2ccccc2o1)N1CCc2cc3nccc(N4CCN5CCC[C@H]5C4)c3cc21` as well.
Given back: 2.91

Asked: Please do the same for `COc1ccc(F)cc1-c1ccccc1CNC(=O)c1cnn(-c2ccc([N+](=O)[O-])cc2)c1C(F)(F)F` as well.
Given back: 2.78

Asked: Please do the same for `Cc1[nH]c(C)c(-c2ccc(-c3ccccc3Cl)nc2)c(=O)c1Cl` as well.
Given back: 2.34

Asked: Please do the same for `CCc1c[nH]c2c(N(c3ccccc3)S(C)(=O)=O)cc(C(=O)N[C@@H](Cc3ccccc3)[C@H](O)CNCc3cccc(C(F)(F)F)c3)cc12` as well.
Given back: 3.00

Asked: Please do the same for `COc1ccccc1CNC(=O)c1nn(-c2ccc(Cl)cc2)c(=O)c2ccccc12` as well.
Given back: 2.47

Asked: Please do the same for `Cn1nccc1C(=O)NCCNCc1cccc(-c2ccc(-c3nc4ccccc4[nH]3)cc2)c1` as well.
Given back: 2.67

Asked: Please do the same for `Cc1ccc(Cn2ncc(N3CCCNCC3)c(Cl)c2=O)cc1NC(=O)Nc1ccc(-c2ccccc2)cc1` as well.
Given back: 2.80

Asked: Please do the same for Cc1ccccc1CNCC(O)c1cccc(C(F)(F)F)c1 (stereo not drawn) as well.
Given back: 2.94

Asked: Please do the same for `CC(C)C[C@H](NC(=O)c1cc(-c2ccc(C(C)(C)C)cc2)no1)C(=O)O.CC(C)C[C@H](NC(=O)c1conc1-c1ccc(C(C)(C)C)cc1)C(=O)O` as well.
Given back: 2.27

Asked: Please do the same for `COC(=O)c1cccc(CNCc2ccc(-c3ccc(-c4nc5cccc(C)c5[nH]4)s3)cc2)c1` as well.
Given back: 2.60

Asked: Please do the same for `COc1ccc(CCN(C)CCCCNC(=O)c2ccc(NC(=O)c3ccc(Cl)cc3)cc2)c(OC)c1` as well.
Given back: 2.96
